Assay name: yeast display, Sf9 membrane polyspecificity reagent, FACS + sequencing; frameworks hold sequencing errors
Readout: polyreactivity (PSR sort gate)

{"columns": ["Polymer sequence", "polyreactivity (PSR sort gate)"],
 "data": [
  ["QVQLVESGGGLVQAGASLRLSCAASGRTFGRYTMGWYRQAPGKEREFVARINWNGGGTYYADSVKGRFTISRDNAKNTVYLQMNSLKPEDTAVYYCNARKRGARFILGYDYWGQGTQVTVSS", "low polyreactivity"],
  ["QVQLVESGGGLVQAGGSLRLSCAASGSTFSAYDMGWYRQAPGKERELVAAIDTGGTTYYADSVKGRFTISRDTAKNTVYVQMNSLKPEDTAVYYCIATIWYRDYGYWGQGTQVTVSS", "low polyreactivity"],
  ["QVQLVESGGGLVQAGGSLRLSCAASGSTFGTNAMGWYRQAPGKEREFVASISVSGGSTYYADSVKGRFTISRDNAKNTVYLQMNSLKPEDTAVYYCNRRAYRRYQFGYWGQGTQVTVSS", "high polyreactivity"],
  ["QVQLVESGGGLVQAGGSLRLSCAASGLTLWTYAMGWYIQAPGQERELVARIRSGGSTYYADSVKGRFTISRDNAKNTVYLQMNSLKPEDTAVYYCAADLQSRVDYWGQGTQVTVSS", "high polyreactivity"]
]}

-- ask Find the recorded polyreactivity (PSR sort gate) belonging to QVQLVESGGGLVQAGGSLRLSCAASGSTFREYAMGWYRQAPGKERELVAAISSGDSTNYADSVKGRFTISRDNAKNTVYLQMNSLKPEDTAVYYCAADAPGAAAVQNDYWGQGTQVTVSS and report it.
-- reply low polyreactivity

-- ask Find the recorded polyreactivity (PSR sort gate) belonging to QVQLVESGGGLVQAGGSLRLSCAASGGTIEYYAMGWYRQAPEKERELVAAISVSGGRTYYADSVKGRFTISRDNAKNTVYLQMNSLKPEDTAVYYCATDSRLWGQGTQVTVSS and report it.
-- reply high polyreactivity

-- ask Find the recorded polyreactivity (PSR sort gate) belonging to QVQLVESGGGLVQAGGSLRLSCAASGRTFRAYAMGGYRQAPGKERELVAAITSGGSTYYADSVKGRFTISRDNAKNTVYLQMNSLKPEDTAVYYCNRRGWSRTHQYDYWGQGTQVTESS and report it.
-- reply high polyreactivity

-- ask Find the recorded polyreactivity (PSR sort gate) belonging to QVQLVESGGGLVQAGGSLRLSCAASGRTFGWSAMGWYRQAPGKERELVAAISSSGGSTYYADSVKGRFTISRDNAKNTVYLQMNSLKPEDTAVYYCAKESYRGGFDYWGQGTQVTVSS and report it.
-- reply high polyreactivity

-- ask Find the recorded polyreactivity (PSR sort gate) belonging to QVQLVESGGGLVQAGGSLSLSCAATGSTFWWYAMGWYRQAPGKEREFVAAIRWSSGSTYYADSVKGRFTISRDNAKNTVYLQMNSLKPEDTAVYYCATDDTSNVYVDLDYWGQGTQVTVSS and report it.
-- reply high polyreactivity

-- ask Find the recorded polyreactivity (PSR sort gate) belonging to QVQLVESGGGLVQAGGSLRLSCAASGRIFRWYAMGWYRQAPGKERELVAAITQGGGSTYYADSVKGRFTISRDNAKNTVYLQMNSLKPEDTAVYYCAARGRSVGSAGTSRYGYWGQGTQVTVSS and report it.
-- reply high polyreactivity

-- ask Find the recorded polyreactivity (PSR sort gate) belonging to QVQLVESGGGLDQAGGSLRLSCAASGGIFDDYAKGRYRQAPRKERELVAAISSSGGSTYYADSVKGRFTISLDNAKNTVYLQMNSLKPEYTAVYLCNADSRGSFGYWGQGTQVTVSS and report it.
-- reply high polyreactivity

====

Assay name: yeast display, Sf9 membrane polyspecificity reagent, FACS + sequencing; frameworks hold sequencing errors
Readout: polyreactivity (PSR sort gate)

{"columns": ["Polymer sequence", "Result"],
 "data": [
  ["QVQLVESGGGLVQAGGSLRLSCAASGITFVANAMGWYRQAPGKERELVAAISYSGASTYADSVKGRFTISRDNAKNTVYLQMNSLKPEDTAVYYCAKDGPYTYGREIYVYWGQGTLVTVSS", "low polyreactivity"],
  ["QVQLVESGGGLVQAGGSLRLSCAASGRIFLLNAMGWYRQAPGKERELVARISSGRTYYADSVKGRFTISRDNAKNTVFLQMISLKPEDTAVYYCNATVSSSKFRYFYVNPYDYWGQGTQVTVSS", "low polyreactivity"],
  ["QVQLVESGGGLVQAGGSLRLSCAASGSIFNWYAMGWYRQAPGNERELVADISWSDGDTYYADSVKGRFSISRDNAKNTDYLQMNSLKPEDTAVYYSAAASNLYYPYYVLGDPYDYWGQGTQVTVSS", "low polyreactivity"],
  ["QVQLVESGGGLVQAGGSLRLSCAASGRIFKYYAMGWYRQAPGKERELVAAISWTGVSTYYADSVKGRFTISRDNAKNTVYLQMNSLKPEDTAVYYCNAQSYRYPKDDYWGQGTQVTVSS", "high polyreactivity"]
]}

Read the next record carefully.
-- ask Find the recorded polyreactivity (PSR sort gate) belonging to QVQLVESGGGLVQAGGSLRLSCAASGSIFDGYAMGWYRQAPGKERELVASISSGGSTNYADSVKGRFTISRDNAKNTVYLQMNSLKPEDTAVYYCAAEWVWYKWEFEYWGQGTQVTVSS and report it.
-- reply high polyreactivity

====

Assay name: yeast display, Sf9 membrane polyspecificity reagent, FACS + sequencing; frameworks hold sequencing errors

{"columns": ["Polymer sequence", "polyreactivity (PSR sort gate)"],
 "data": [
  ["QVQLVESGGGLVQAGGSLRLSCAASGLIFYDYAMGWYRPAPGKERELVAAITSSDSTYYADSVKGRFTISRDNAQNTVYLQMNSLKPEDTAVYYCAAKPYYFYGMDYWGQGTQVTVSS", "high polyreactivity"],
  ["QVQLVESGGGLVQAGGSLRLSCAASGFTFAQYTMGWYRPAPGKERELVAAIRVGGGSTYYADSVKGRFTISRDNAKNTVYLQMNSLKPEDTAVYYCAKRTYSRKFRGAYNYWGQGTQVTVSS", "high polyreactivity"]
]}

====

Assay name: yeast display, Sf9 membrane polyspecificity reagent, FACS + sequencing; frameworks hold sequencing errors

{"columns": ["Polymer sequence", "polyreactivity (PSR sort gate)"],
 "data": [
  ["QVQLVESGGGLVQAGGSLGLSCAASGRSLIWYAMGWYRQAPGKERELVAAITSGGRTYYADSVKGRFTISRDNAKKTVYLQMNSLKPEDTAVYYCNKVGRDPGRDFWGQGTQVPVSS", "high polyreactivity"],
  ["QVHLVESGGGLVQAGRSLRLSCAASGLTFGTNPMGWYRQAPGKERELVAAITWRGGSTSYADSVKGRFTISRDNAKNTVYLQMNSLKPEDTAVYYCAVRLRYPGNTFYDWGQGTQVTVSS", "high polyreactivity"]
]}

====

Assay name: yeast display, Sf9 membrane polyspecificity reagent, FACS + sequencing; frameworks hold sequencing errors
Readout: polyreactivity (PSR sort gate)

In the examples that follow, each entry is paired with its recorded polyreactivity (PSR sort gate).
{"columns": ["Polymer sequence", "Readout", "Result"],
 "data": [
  ["QVQLVESGGRLVQAGGSLSLSCAASGRTFHGYAMGWYRQAPGKERELVARINWSDGRTYYADSVKGRFTISRDNAKNTDYLQMNSLKPEDTAVYYCAADKTVSYAPAWYYYWGQGTQVSVSS", "polyreactivity (PSR sort gate)", "low polyreactivity"],
  ["QVQLVESGGGLVQAGGSLRLSCAASGRIFWGNAMGWYRQAPGKERELVAAITRSGGSTYYADSVKGRFTISRDNAKNTVYLQMNSLKPEDTAVYYCAARRNYINFRYTLDYYYWGQGTQVTVSS", "polyreactivity (PSR sort gate)", "high polyreactivity"],
  ["QVQLVESGGGLVQAGGSLRLSCAASGSILPYNAMGWYRQAPGKERELVCSSSRGGGTNYADSVKGRFTISRDNAKNTVYLQMNSLKPEDTAVYYCAARTLRVDYDSHWYSLVDYWGQGTQVTVSS", "polyreactivity (PSR sort gate)", "low polyreactivity"],
  ["QVQLVESGGGLVQAGGSLRLSCAASGSIFDVYAMGWYRPAPGKEREFVATITTSGGNTYYADSVKGRFTISRDHAKNTVHLQMNSLKPEDTAVYYCAKDRVKSPYLVYDSWGQGTQGTVSS", "polyreactivity (PSR sort gate)", "low polyreactivity"],
  ["QVQLVESGGGLVQAGGSLRLSCAASGSTFSYYAMGWYRQAPGKERELVAAITTSGGRTYYADSVKGRFTISRDNAKFTVYLQMNSLKPEDTAVYYCNARSGRLGDYWGQGTQVTVSS", "polyreactivity (PSR sort gate)", "high polyreactivity"],
  ["QVQLVESGGGLVQAGGSLRLSCAASGSIFVTYALGWYRQAPGKERELVAAINSGGRTNYADSVKGRFTISRDNAKNTVYLQMNSLKPEDTAVYYCAATGRYFYPYYRYDYWGQGTQVTVSS", "polyreactivity (PSR sort gate)", "low polyreactivity"]
]}

-- ask Find the recorded polyreactivity (PSR sort gate) belonging to QVQLEESGGGLVQPGGSLRLRCAASGITFYWNAMGWYRQAPVKERELVAGITNSGGGTYYADSVKGRFTISRDNSMYTVYLLMNSLKPEDSAVYYCAAEPTSWYFFYYVGDYLGQGTQVTVSS and report it.
-- reply high polyreactivity

-- ask Find the recorded polyreactivity (PSR sort gate) belonging to QVQLVESGGGLVQAGGSLRLSCAASGSIFAYNGMGGYRQPPGKERELVAAISRRGGSTTYADSVKGRFTISRDNAKNTVYLQMNSLKPEDTAVYYCNTGAWSVRKMYYWGQGTQVTVSS and report it.
-- reply high polyreactivity

-- ask Find the recorded polyreactivity (PSR sort gate) belonging to QVQLVESGGGLVQAGGSLRLSCAASGFTFSPNAMGWYRQAPGKERELVAAITTTGGSTHYADSVKRRFTISRDHAKNTVYLQMHSLKQEDTAVYYCAADWYFEYPTAFHYEYWGQGTQVTVSS and report it.
-- reply high polyreactivity

-- ask Find the recorded polyreactivity (PSR sort gate) belonging to QVQLVESGGGLVQAGGSLRLSCAASGRIFTSNTMAWYRQAPGKERELVAAITSSGGSMYYADSVKGRFTLSRDNAKNTVYLQIISLKPEDTAVYYFAGDTIGYHYWYDYWGQGTQVTVSS and report it.
-- reply low polyreactivity

-- ask Find the recorded polyreactivity (PSR sort gate) belonging to QVQLVESGGGLVQAGGSLRLSCAASGSTFYVNVMGWYRQAPGKERELVADISNDGSTHYADSVKGRFTISRDTAKNTVYLQMNSLKPEDTAVYYCNAEEIDEASYAYPPLEYDYWGQGTQVTVSS and report it.
-- reply low polyreactivity

The measured values listed here are drawn from the nanobody polyreactivity screen of Harvey et al. (2022).
